Where do these numbers come from? They come from patent US20230116972A1.

TEST TARGET: CYP2D6 (Homo sapiens)
Construct: from tissue; host or cells: human liver microsomes (pooled in the time-dependent assay)
Sequence (P10635 whole entry): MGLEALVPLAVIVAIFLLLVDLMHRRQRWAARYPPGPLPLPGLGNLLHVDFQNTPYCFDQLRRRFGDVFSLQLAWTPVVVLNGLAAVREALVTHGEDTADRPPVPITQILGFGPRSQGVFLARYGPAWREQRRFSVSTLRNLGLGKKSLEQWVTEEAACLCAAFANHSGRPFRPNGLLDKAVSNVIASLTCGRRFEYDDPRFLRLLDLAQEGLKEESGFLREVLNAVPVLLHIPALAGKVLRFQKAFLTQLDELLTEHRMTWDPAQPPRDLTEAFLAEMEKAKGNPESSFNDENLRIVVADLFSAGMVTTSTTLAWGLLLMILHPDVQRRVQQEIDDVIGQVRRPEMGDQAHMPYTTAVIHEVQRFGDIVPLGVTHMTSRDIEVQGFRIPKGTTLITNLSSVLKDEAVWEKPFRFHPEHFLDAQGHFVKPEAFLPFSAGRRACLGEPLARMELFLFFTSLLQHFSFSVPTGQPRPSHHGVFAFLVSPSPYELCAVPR
PROTOCOL DESCRIPTION: direct inhibition of CYP450 in human liver microsomes
Assay type: in vitro ADME
RUN PARAMETERS: 50 uM, % of non-inhibited control, read-out: CYP2D6 T0 % activity
OBSERVATION TYPE: activity at 50 µM (%)
Express your answer in %, writing the number without its unit.

Solved entries:
CO[C@H]1CC[C@H](NC(=O)c2nccc(-n3ccnc3)n2)CC1
47
Cn1cncc1-c1ccnc(C(=O)N[C@H]2CC[C@H](O)CC2)n1
56

Q: State measured activity at 50 µM of the molecule `CO[C@H]1CC[C@H](NC(=O)c2cc(C3(C)COC3)nc(-c3cncn3C)n2)CC1` with CYP2D6 (Homo sapiens).
A: 36
